target: Mitogen-activated protein kinase 1 (Homo sapiens, UniProt P28482)
Sequence (P28482 whole entry): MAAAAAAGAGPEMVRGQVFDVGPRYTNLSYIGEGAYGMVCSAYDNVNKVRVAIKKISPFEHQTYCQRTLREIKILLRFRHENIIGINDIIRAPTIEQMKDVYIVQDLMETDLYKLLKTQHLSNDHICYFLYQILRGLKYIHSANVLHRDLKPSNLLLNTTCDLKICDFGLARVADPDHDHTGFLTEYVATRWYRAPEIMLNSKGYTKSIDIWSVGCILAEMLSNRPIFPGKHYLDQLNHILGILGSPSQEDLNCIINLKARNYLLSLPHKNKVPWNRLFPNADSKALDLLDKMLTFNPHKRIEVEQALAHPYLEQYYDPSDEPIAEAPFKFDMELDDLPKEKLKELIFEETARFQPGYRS
pIC50: −log10 of the molar value.

ITEM_SMILES	EXPERIMENTAL_TARGET	pIC50
CCc1cccc(CC)c1NC(=O)c1nn(C)c2c1CCc1cnc(Nc3ccc(C(=O)NC4CCN(C)CC4)cc3OC(F)(F)F)nc1-2	Mitogen-activated protein kinase 1 (Homo sapiens, UniProt P28482)	< 5.00

====

molecular target: Histone acetyltransferase KAT2B (Homo sapiens, UniProt Q92831); assay: Selectivity interaction (BROMOscan) EUB0001074a KAT2B
Sequence (Q92831 whole entry): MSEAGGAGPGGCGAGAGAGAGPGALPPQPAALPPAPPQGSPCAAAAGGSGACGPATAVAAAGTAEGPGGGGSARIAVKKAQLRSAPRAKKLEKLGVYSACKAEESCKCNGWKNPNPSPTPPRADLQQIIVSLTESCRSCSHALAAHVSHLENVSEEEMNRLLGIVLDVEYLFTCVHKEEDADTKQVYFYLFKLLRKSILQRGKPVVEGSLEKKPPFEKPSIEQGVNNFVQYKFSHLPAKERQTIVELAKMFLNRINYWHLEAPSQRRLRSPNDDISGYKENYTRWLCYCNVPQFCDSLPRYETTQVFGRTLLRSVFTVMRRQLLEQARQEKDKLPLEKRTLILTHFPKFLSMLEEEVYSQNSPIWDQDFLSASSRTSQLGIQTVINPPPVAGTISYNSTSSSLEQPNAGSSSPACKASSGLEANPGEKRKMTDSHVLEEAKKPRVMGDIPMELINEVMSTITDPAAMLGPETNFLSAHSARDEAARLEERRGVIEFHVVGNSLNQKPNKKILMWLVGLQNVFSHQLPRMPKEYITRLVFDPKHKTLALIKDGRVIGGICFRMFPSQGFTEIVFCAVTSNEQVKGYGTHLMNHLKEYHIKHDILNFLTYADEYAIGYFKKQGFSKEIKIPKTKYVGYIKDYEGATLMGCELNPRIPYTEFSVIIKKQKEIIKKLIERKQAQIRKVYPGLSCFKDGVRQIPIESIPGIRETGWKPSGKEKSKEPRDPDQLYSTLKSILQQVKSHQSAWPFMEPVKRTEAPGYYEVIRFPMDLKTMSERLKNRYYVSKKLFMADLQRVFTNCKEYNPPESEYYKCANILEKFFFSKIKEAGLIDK
pIC50: −log10 of the molar value.
ENDPOINT_NAME: pIC50

ITEM_SMILES	ENDPOINT_NAME	RESULT
CCc1cc2cc(NS(=O)(=O)c3ccc(C#N)cc3)ccc2n(CC)c1=O	pIC50	< 4.00
